Measured log10(EC50), listed per entry.
Test system: TNF-α
test description: Induction of cytokines in vitro: TNF-α release in human whole blood (ELISA)
Assay type: cell-based
condition info: Homo sapiens, 3 h, read-out: TNFa Stimulation Value
Recorded EC50 (log10, µM)

1. CCCCCCCCCCCCCC(=O)N[C@H](CCCC(CCCCCCCC)OC(=O)CCCCCCCCCCCC)COP(=O)(O)OCCNC(=O)NCCOP(=O)(O)OC[C@@H](CCCC(CCCCCCCC)OC(=O)CCCCCCCCCCCC)NC(=O)CCCCCCCCCCCCC (some centres unmarked): -1.15
2. CCCCCCCCCCCCC(=O)N[C@@H](CCOP(=O)([O-])OCCNC(=O)NCCOP(=O)([O-])OCC[C@H](NC(=O)CCCCCCCCCCCC)C(CCCCCCCCCC)OC(=O)CCCCCCCCCC)C(CCCCCCCCCC)OC(=O)CCCCCCCCCC.[Na+].[Na+] (some centres unmarked): -1.85

For record "CCCCCCCCCCCCCC(=O)N[C@@H](COP(=O)([O-])OCCNC(=O)NCCOP(=O)([O-])OC[C@H](NC(=O)CCCCCCCCCCCCC)[C@H](CCCCCCCCCCC)OC(=O)CCCCCCCCCCC)[C@H](CCCCCCCCCCC)OC(=O)CCCCCCCCCCC.[Na+].[Na+]" the listed log10(EC50) is -2.05

The molecule listed as CCCCCCCCCCCCC(=O)O[C@H](CCOP(=O)([O-])OCCNC(=O)NCCOP(=O)([O-])OCC[C@@H](OC(=O)CCCCCCCCCCCC)C(CCCCCCCCCC)OC(=O)CCCCCCCCCC)C(CCCCCCCCCC)OC(=O)CCCCCCCCCC.[Na+].[Na+] (some centres unmarked) shows log10(EC50) equal to 0.20

// recorded log10(EC50) for CCCCCCCCCCCCCC(=O)NC(CCCCCCCCC)CC[C@@H](COP(=O)(O)OCCNC(=O)NCCOP(=O)(O)OC[C@H](CCC(CCCCCCCCC)NC(=O)CCCCCCCCCCCCC)OC(=O)CCCCCCCCCCCCC)OC(=O)CCCCCCCCCCCCC (some centres unmarked) : -0.69

====

Test system: tetanus toxoid-specific IgG
Design: species or system Balb/c mice
condition info: mouse, in vivo, sc
Examples of molecules with documented Mean concentration of tetanus toxoid-specific IgG (6 mice/group) follow.
Numeric answer only, unit µg/mL assumed.

1) CCCCCCCCCCCCC(=O)O[C@H](CCOP(=O)([O-])OCCNC(=O)NCCOP(=O)([O-])OCC[C@@H](OC(=O)CCCCCCCCCCCC)C(CCCCCCCCCC)OC(=O)CCCCCCCCCC)C(CCCCCCCCCC)OC(=O)CCCCCCCCCC.[Na+].[Na+] (stereo partly shown): 2010
2) CCCCCCCCCCCCCC(=O)N[C@@H](COP(=O)([O-])OCCNC(=O)NCCOP(=O)([O-])OC[C@H](NC(=O)CCCCCCCCCCCCC)[C@H](CCCCCCCCCCC)OC(=O)CCCCCCCCCCC)[C@H](CCCCCCCCCCC)OC(=O)CCCCCCCCCCC.[Na+].[Na+]: 5640
3) CCCCCCCCCCCCC(=O)N[C@@H](CCOP(=O)([O-])OCCNC(=O)NCCOP(=O)([O-])OCC[C@H](NC(=O)CCCCCCCCCCCC)C(CCCCCCCCCC)OC(=O)CCCCCCCCCC)C(CCCCCCCCCC)OC(=O)CCCCCCCCCC.[Na+].[Na+] (stereo partly shown): 3218

With those in mind, consider the next molecule.
Just so you know, measured Mean concentration of tetanus toxoid-specific IgG (6 mice/group) for "CCCCCCCCCCCCC/C=C/[C@@H](OC(=O)CCCCCCCCCCC)[C@H](COP(=O)([O-])OCCNC(=O)NCCOP(=O)([O-])OC[C@H](NC(=O)CCCCCCCCCCCCC)[C@@H](/C=C/CCCCCCCCCCCCC)OC(=O)CCCCCCCCCCC)NC(=O)CCCCCCCCCCCCC.[Na+].[Na+]" came out at 1995
